method_summary: payload KL610023 PK in plasma of cynomolgus monkey (Table 5)
Assay type: in vivo
assay_context: KL610023 administered, n=4, dose not given
Description: Since the metabolism of ADC is different from that of the toxic payload ([30], [31]), the linkage of SKB264 mAb can dramatically prolong the half-life of KL610023 as compared to KL610023 alone. Nevertheless, after being released from SKB264, KL610023 could be rapidly eliminated. […] Overall, the proprietary technology used in our study to construct SKB264 could ensure a more precise delivery process.
measurement_type: AUC(0-t) (ng·h/mL)
Answer with a number only, understood to be in ng·h/mL.

Measured AUC(0-t), CC[C@@]1(O)C(=O)OCc2c1cc1n(c2=O)Cc2c-1nc1ccccc1c2CCN(C(C)C)S(C)(=O)=O : 97

====

System: HCC1806 (TROP2+)
method_summary: cytotoxic assay (CellTiter-Glo, 72 h) HCC1806
Type: cell-based, human
assay_context: HCC1806, payload comparison, Figure 7C, duplicates; read-out: IC50 inhibition of proliferation of HCC1806 cells
measurement_type: IC50 (nM)
Expressed in nM, but write only the number.

# compound CCc1c2c(nc3ccc(O)cc13)-c1cc3c(c(=O)n1C2)COC(=O)[C@]3(O)CC ; its IC50 = 2.61

====

Tested on: NCI-N87 (TROP2+)
method_summary: cytotoxic assay (CellTiter-Glo, 72 h) NCI-N87
Type: cell-based
assay_context: Homo sapiens, read-out: IC50 cell growth inhibition
measurement_type: pIC50
Lab note: report pIC50 as minus log10 of the concentration in molar units, number only.

Sample CC[C@@]1(O)C(=O)OCc2c1cc1n(c2=O)Cc2c-1nc1ccccc1c2CCN(C(C)C)S(C)(=O)=O ; pIC50 observed: 8.70

====

measurement_type: IC50 (µM)
All answers are understood in µM, so give the number only.

Reading of IC50 for CCc1c2c(nc3ccc(O)cc13)-c1cc3c(c(=O)n1C2)COC(=O)[C@]3(O)CC with UniProtKB P11387: 1.1

Item CC[C@@]1(O)C(=O)OCc2c1cc1n(c2=O)Cc2c-1nc1ccccc1c2CCN(C(C)C)S(C)(=O)=O was tested on UniProtKB P11387; the reported IC50 is 0.7

====

method_summary: PK of SKB264 and KL610023 in cynomolgus monkeys (serum)
Format: in vivo
assay_context: both sexes, cynomolgus monkey, in vivo, iv, unconjugated KL610023 0.24 mg/kg single i.v. infusion, n = 6, mean ± SD
measurement_type: AUC(0-t) (ng·h/mL)
Provide only the numeric value, understood in ng·h/mL.

Lab book: AUC(0-t) of CC[C@@]1(O)C(=O)OCc2c1cc1n(c2=O)Cc2c-1nc1ccccc1c2CCN(C(C)C)S(C)(=O)=O noted as 228

====

method_summary: payload KL610023 PK in plasma of cynomolgus monkey (Table 5)
Type: in vivo
assay_context: KL610023 administered, n=4, dose not given
measurement_type: AUC(0-inf) (ng·h/mL)
The response must be a number in ng·h/mL with no trailing unit.

Summary for this compound, CC[C@@]1(O)C(=O)OCc2c1cc1n(c2=O)Cc2c-1nc1ccccc1c2CCN(C(C)C)S(C)(=O)=O : AUC(0-inf) is 97
